Just for reference, the supplement of paper PMC9942255 is where these values come from.

Each entry below carries its reported AmyQ secretion efficiency.
# System: Bacillus subtilis DB104 (SP-AmyQ fusion secretion)
# measurementProtocol: AmyQ secretion efficiency, weighted average sort bin (1 = best secretion, 10 = worst) (bin number (weighted average, 1-10)); higher = lower secretion efficiency

> print(dat)
                       sequencestring            measurementkind  result
1     MRKKRVKRCKKKRSLTLGSLLPAGYASAKED  AmyQ secretion efficiency    7.22
2     MTMLRKIIGWILLLCIIPLFAFTVIASSKEV  AmyQ secretion efficiency    6.98
3       MLKKIALTLCPAIVGSLLFFTAPASGHVS  AmyQ secretion efficiency    2.72
4       MKRIRIPMTLALGAALTIAPLSFASAKKR  AmyQ secretion efficiency    3.26
5          MKVPKTMLLSTAAGLLLSLTVSAHYV  AmyQ secretion efficiency    5.02
6  MPYLKRLSIVLLLLVTGLFMSLFAVTATASAQTG  AmyQ secretion efficiency     1.6

query: State the recorded AmyQ secretion efficiency for this entry: `MRKKTKNRLISSVLSTVVISSLLFPGAAGASSD`
result: 2.47

query: I am curious: what AmyQ secretion efficiency value has been reported for `MKFVKRRIRKKRRRLMLSVTSLFALQPSAKAAEH` ?
result: 6.62

query: Which AmyQ secretion efficiency value is on record for `MPYLKRVLLLLVTGLFMSLFAVTATASLQTG` ?
result: 1.81

query: Can you share its AmyQ secretion efficiency? I mean this sequence: `MAIIIAIIAAVIVIAALITFNVRNASPE`
result: 6.75

query: Please give the measured AmyQ secretion efficiency for this sequence: `MRIFKKAVFVIMISFLIATVNVNTAHGAID`
result: 5.43

query: Could you tell me which AmyQ secretion efficiency is on file for `MKWMCSICCAAVLLAGESAQAEAV` ?
result: 3.16

query: Would you mind telling me what AmyQ secretion efficiency value was observed for `MKRKLLSSLAISALSLGLLVSAPTALFAAES` ?
result: 2.49
